molecular target: ATP-binding cassette sub-family C member 4 (Homo sapiens, UniProt O15439); assay: Inhibition of human MRP4 overexpressed in Sf9 cell membrane vesicles assessed as uptake of [3H]-estradiol-17beta-D-glucuronide in presence of ATP and GSH measured after 20 mins by membrane vesicle transport assay
Sequence (O15439 whole entry): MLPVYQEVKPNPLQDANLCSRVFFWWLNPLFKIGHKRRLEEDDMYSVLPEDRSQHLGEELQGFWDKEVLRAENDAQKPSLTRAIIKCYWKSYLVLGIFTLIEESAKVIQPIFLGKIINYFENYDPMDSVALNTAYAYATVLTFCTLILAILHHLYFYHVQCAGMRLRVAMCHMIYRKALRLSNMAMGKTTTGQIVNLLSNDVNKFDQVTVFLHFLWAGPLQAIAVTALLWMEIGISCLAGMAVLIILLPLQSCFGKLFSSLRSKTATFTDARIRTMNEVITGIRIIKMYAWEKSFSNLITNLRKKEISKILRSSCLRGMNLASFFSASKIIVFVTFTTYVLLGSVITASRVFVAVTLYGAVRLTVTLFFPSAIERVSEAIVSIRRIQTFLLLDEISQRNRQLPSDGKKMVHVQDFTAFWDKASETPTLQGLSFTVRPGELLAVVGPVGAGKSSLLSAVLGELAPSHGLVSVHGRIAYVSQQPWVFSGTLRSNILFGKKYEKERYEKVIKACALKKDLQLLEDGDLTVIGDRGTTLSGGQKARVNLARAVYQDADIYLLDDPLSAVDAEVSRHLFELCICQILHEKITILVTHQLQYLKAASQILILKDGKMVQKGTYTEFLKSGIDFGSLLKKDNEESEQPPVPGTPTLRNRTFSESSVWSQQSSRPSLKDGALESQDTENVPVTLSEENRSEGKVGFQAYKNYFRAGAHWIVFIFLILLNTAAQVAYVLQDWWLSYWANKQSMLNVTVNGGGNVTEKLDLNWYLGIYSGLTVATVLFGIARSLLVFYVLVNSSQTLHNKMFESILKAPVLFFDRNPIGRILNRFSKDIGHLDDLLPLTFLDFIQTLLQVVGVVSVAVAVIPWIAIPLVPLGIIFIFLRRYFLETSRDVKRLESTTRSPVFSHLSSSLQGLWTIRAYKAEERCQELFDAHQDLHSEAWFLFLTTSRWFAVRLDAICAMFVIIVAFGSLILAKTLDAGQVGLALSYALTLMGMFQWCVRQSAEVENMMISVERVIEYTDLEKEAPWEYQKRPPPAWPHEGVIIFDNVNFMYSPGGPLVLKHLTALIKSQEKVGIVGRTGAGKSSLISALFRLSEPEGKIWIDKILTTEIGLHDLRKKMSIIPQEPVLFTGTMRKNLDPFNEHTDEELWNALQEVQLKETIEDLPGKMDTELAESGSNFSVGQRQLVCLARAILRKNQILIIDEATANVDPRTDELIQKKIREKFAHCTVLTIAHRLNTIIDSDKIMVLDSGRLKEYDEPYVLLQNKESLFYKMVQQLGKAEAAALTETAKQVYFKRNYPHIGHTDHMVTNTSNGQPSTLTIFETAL
pIC50: −log10 of the molar value.
Can you tell me pIC50 for the items I'm about to list?

Task: Form field - read-out: pIC50; system: ATP-binding cassette sub-family C member 4 (Homo sapiens, UniProt O15439); submitted item: CS(=O)(=O)OCCCCOS(C)(=O)=O [BUSULFAN]
Result: < 3.88

Task: Try this compound too: O=[N+]([O-])C(Br)(CO)CO [BRONOPOL]
Result: < 3.88

Task: Try this compound too: C=C1/C(=C\C=C2/CCC[C@]3(C)[C@@H]([C@H](C)CCCC(C)(C)O)CC[C@@H]23)C[C@@H](O)C[C@@H]1O [CALCITRIOL]
Result: < 3.88

Task: Try this compound too: COc1ccccc1OCCNCC(O)COc1cccc2[nH]c3ccccc3c12 (centres undefined) [CARVEDILOL]
Result: < 3.88

Task: Try this compound too: NS(=O)(=O)Cc1noc2ccccc12 [ZONISAMIDE]
Result: < 3.88

Go through the items and report each one's pIC50.
1. CC(C)NCC(O)COc1cccc2ccccc12 (centres undefined) [PROPRANOLOL]
2. Cc1ccc(NC(=O)c2ccc(CN3CCN(C)CC3)cc2)cc1Nc1nccc(-c2cccnc2)n1 [IMATINIB]
3. CCN(CC)CCOc1ccc2c(c1)C(=O)c1cc(OCCN(CC)CC)ccc1-2 [TILORONE]
4. O=C(CCCN1CCC(O)(c2ccc(Cl)cc2)CC1)c1ccc(F)cc1 [HALOPERIDOL]
5. C#C[C@@]1(O)CC[C@H]2[C@@H]3CCC4=CC(=O)CC[C@@H]4[C@H]3CC[C@@]21C
6. O=C1CN(/N=C/c2ccc([N+](=O)[O-])o2)C(=O)N1 [NITROFURANTOIN]

Result:
["< 3.88", "< 3.88", "< 3.88", "< 3.88", "< 3.88", 4.68]

Go through the items and report each one's pIC50.
1. Cc1ccc(-c2ncc(Cl)cc2-c2ccc(S(C)(=O)=O)cc2)cn1 [ETORICOXIB]
2. O=C(O)COC(=O)Cc1ccccc1Nc1c(Cl)cccc1Cl [ACECLOFENAC]
3. O=C(c1ccccc1)c1ccc2n1CCC2C(=O)O (centres undefined) [KETOROLAC TROMETHAMINE]
4. C[C@]12CC[C@H]3[C@@H](CC[C@@]45O[C@@H]4C(O)=C(C#N)C[C@]35C)[C@@H]1CC[C@@H]2O [TRILOSTANE]
5. C=C(CC)C(=O)c1ccc(OCC(=O)O)c(Cl)c1Cl [ETHACRYNIC ACID]
6. O=C1OC(OC(=O)c2cccnc2Nc2cccc(C(F)(F)F)c2)c2ccccc21 (centres undefined) [TALNIFLUMATE]
7. Clc1cccc(N2CCNCC2)c1 [CHLOROPHENYLPIPERAZINE]
8. Cc1cc2c(s1)Nc1ccccc1N=C2N1CCN(C)CC1 [OLANZAPINE]

Result:
1. 4.28
2. < 3.88
3. 5.57
4. < 3.88
5. < 3.88
6. < 3.88
7. < 3.88
8. < 3.88
